# assayed.system: Cin5 (UniProt P40917)
# Sequence: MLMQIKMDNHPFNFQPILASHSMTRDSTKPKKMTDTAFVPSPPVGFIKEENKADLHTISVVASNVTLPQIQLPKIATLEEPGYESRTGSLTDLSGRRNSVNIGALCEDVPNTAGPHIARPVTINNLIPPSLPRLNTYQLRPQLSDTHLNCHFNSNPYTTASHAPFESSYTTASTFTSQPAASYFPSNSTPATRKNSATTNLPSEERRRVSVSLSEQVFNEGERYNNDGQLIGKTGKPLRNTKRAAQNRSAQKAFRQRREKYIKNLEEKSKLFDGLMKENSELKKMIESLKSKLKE
# protocol.text: PBM E-score (8-mer binding enrichment) (E-score (-0.5 to 0.5)); higher = stronger / more preferred TF binding
# particulars: protein concentration: 100 nM; construct: GST-full length
In all, about 33,000 sequences were measured (“E-score (-0.5 to 0.5)”: median about -0.0059, highest 2% from about 0.26 on). The full list was thinned out, with the highest values kept by preference.
Please mark MET if the recorded PBM E-score is equal to or greater than -0.02, and NOT MET if it falls below.

    sequence_content         assayed_system    class
 0          AACCCTGA  Cin5 (UniProt P40917)      MET
 1          TCCTCGAA  Cin5 (UniProt P40917)      MET
 2          ACCCTGGA  Cin5 (UniProt P40917)  NOT MET
 3          ACCGCTCG  Cin5 (UniProt P40917)  NOT MET
 4          CGGGATTA  Cin5 (UniProt P40917)      MET
 5          AACAAGTA  Cin5 (UniProt P40917)      MET
 6          CTCGATTC  Cin5 (UniProt P40917)      MET
 7          CTCCCTTC  Cin5 (UniProt P40917)  NOT MET
 8          ATTGCGTA  Cin5 (UniProt P40917)      MET
 9          AACAAGAT  Cin5 (UniProt P40917)      MET
10          CGCCTCTC  Cin5 (UniProt P40917)  NOT MET
11          CTGGACGA  Cin5 (UniProt P40917)  NOT MET
12          CAGTAACC  Cin5 (UniProt P40917)  NOT MET
13          TATAATCA  Cin5 (UniProt P40917)      MET
14          CCATGTAG  Cin5 (UniProt P40917)      MET
15          ATTGCTGA  Cin5 (UniProt P40917)      MET
16          GTTGCGTA  Cin5 (UniProt P40917)      MET
17          CGCGGTAC  Cin5 (UniProt P40917)  NOT MET
18          CTCGATTA  Cin5 (UniProt P40917)      MET
19          CCACCGGA  Cin5 (UniProt P40917)      MET
20          CAGACGAC  Cin5 (UniProt P40917)  NOT MET
21          ATAAGGCG  Cin5 (UniProt P40917)      MET
22          AACAAAAA  Cin5 (UniProt P40917)      MET
23          CCTCAATA  Cin5 (UniProt P40917)  NOT MET
24          CTGGCTCA  Cin5 (UniProt P40917)      MET
25          TATAATAA  Cin5 (UniProt P40917)      MET
26          ACATGTAG  Cin5 (UniProt P40917)      MET
27          ATACAGGG  Cin5 (UniProt P40917)      MET
28          GAGACGAA  Cin5 (UniProt P40917)      MET
29          CGTTGGGC  Cin5 (UniProt P40917)  NOT MET
30          GTTGCTGA  Cin5 (UniProt P40917)      MET
31          CTTGCTTA  Cin5 (UniProt P40917)      MET
32          TCGGCAGA  Cin5 (UniProt P40917)  NOT MET
33          AACGCGCA  Cin5 (UniProt P40917)      MET
34          AAAAACCA  Cin5 (UniProt P40917)      MET
